# Test system: Enterococcus sp.
# experiment: in vitro antibacterial evaluation, MIC by broth dilution
# Assay type: cell-based
# condition parameters: Enterococcus avium (GC 4558); broth dilution, 18 hours at 35° C.
assay endpoint: MIC Enterococcus avium (GC 4558) (µg/mL)
Express the result in µg/mL but write the number alone.

COc1cc(OC)cc(C2OCC3OC(OC4C(CO)OC(Oc5ccc(CC6NC(=O)C(C(C)c7ccccc7)NC(=O)CNC(=O)C(CO)NC(=O)C(C(O)C7CNC(=N)N7C7OC(CO)C(O)C(O)C7O)NC(=O)C(C(O)C7CNC(=N)N7)NC6=O)cc5)C(O)C4O)C(O)C(O)C3O2)c1 (centres unmarked)    8
CC(c1ccccc1)C1NC(=O)CNC(=O)C(CO)NC(=O)C(C(O)C2CNC(=N)N2C2OC(CO)C(O)C(O)C2O)NC(=O)C(C(O)C2CNC(=N)N2)NC(=O)C(Cc2ccc(OC3OC(COC(=O)C(c4ccccc4)c4ccccc4)C(OC4OC(CO)C(O)C(O)C4O)C(O)C3O)cc2)NC1=O (centres unmarked) [Example 96b]    4
CC(c1ccccc1)C1NC(=O)CNC(=O)C(CO)NC(=O)C(C(O)C2CNC(=N)N2C2OC(CO)C(O)C(O)C2O)NC(=O)C(C(O)C2CNC(=N)N2)NC(=O)C(Cc2ccc(OC3OC(CO)C(OC4OC5COC(c6ccc7c(c6)OCCO7)OC5C(O)C4O)C(O)C3O)cc2)NC1=O (centres unmarked)    8
CCCC(CCC)C(=O)OCC1OC(OC2C(CO)OC(Oc3ccc(CC4NC(=O)C(C(C)c5ccccc5)NC(=O)CNC(=O)C(CO)NC(=O)C(C(O)C5CNC(=N)N5C5OC(CO)C(O)C(O)C5O)NC(=O)C(C(O)C5CNC(=N)N5)NC4=O)cc3)C(O)C2O)C(O)C(O)C1O (centres unmarked) [Example 99c]    4
CC(C)=CCCC(C)CC1OCC2OC(OC3C(CO)OC(Oc4ccc(CC5NC(=O)C(C(C)c6ccccc6)NC(=O)CNC(=O)C(CO)NC(=O)C(C(O)C6CNC(=N)N6C6OC(CO)C(O)C(O)C6O)NC(=O)C(C(O)C6CNC(=N)N6)NC5=O)cc4)C(O)C3O)C(O)C(O)C2O1 (centres unmarked)    8
CC(c1ccccc1)C1NC(=O)CNC(=O)C(CO)NC(=O)C(C(O)C2CNC(=N)N2C2OC(CO)C(O)C(O)C2O)NC(=O)C(C(O)C2CNC(=N)N2)NC(=O)C(Cc2ccc(OC3OC(CO)C(OC4OC(COC(=O)NCc5ccccc5)C(O)C(O)C4O)C(O)C3O)cc2)NC1=O (centres unmarked) [Example 257b]    0.5
CC(c1ccccc1)C1NC(=O)CNC(=O)C(CO)NC(=O)C(C(O)C2CNC(=N)N2C2OC(CO)C(O)C(O)C2O)NC(=O)C(C(O)C2CNC(=N)N2)NC(=O)C(Cc2ccc(OC3OC(CO)C(OC4OC5COC(Cc6ccc(Cl)cc6)OC5C(O)C4O)C(O)C3O)cc2)NC1=O (centres unmarked)    1
CC(C)=CCCC1OCC2OC(OC3C(CO)OC(Oc4ccc(CC5NC(=O)C(C(C)c6ccccc6)NC(=O)CNC(=O)C(CO)NC(=O)C(C(O)C6CNC(=N)N6C6OC(CO)C(O)C(O)C6O)NC(=O)C(C(O)C6CNC(=N)N6)NC5=O)cc4)C(O)C3O)C(O)C(O)C2O1 (centres unmarked)    16

Enquiry: Reported MIC Enterococcus avium (GC 4558), compound CC(c1ccccc1)C1NC(=O)CNC(=O)C(CO)NC(=O)C(C(O)C2CN(Cc3ccc4ccccc4c3)C(=N)N2C2OC(CO)C(O)C(O)C2O)NC(=O)C(C(O)C2CNC(=N)N2)NC(=O)C(Cc2ccc(OC3OC(CO)C(OC4OC5COC6(OC5C(O)C4O)C4CC5CC(C4)CC6C5)C(O)C3O)cc2)NC1=O (centres unmarked) : ____
Return: 4

Enquiry: Subsequent entry: CC(c1ccccc1)C1NC(=O)CNC(=O)C(CO)NC(=O)C(C(O)C2CNC(=N)N2C2OC(CO)C(O)C(O)C2O)NC(=O)C(C(O)C2CNC(=N)N2)NC(=O)C(Cc2ccc(OC3OC(CO)C(OC4OC5COC(C6CCCC6)OC5C(O)C4O)C(O)C3O)cc2)NC1=O (centres unmarked)
Return: 4

---

Measured MIC Enterococcus faecium (GC 4556), listed per entry for reference.
# System: Enterococcus sp.
# experiment: in vitro antibacterial evaluation, MIC by broth dilution
# Assay type: cell-based
# condition parameters: broth dilution, 18 hours at 35° C.; strain GC 4556
API: value field is a number in µg/mL; no unit string.

Use these answered entries as a reference point.
CC(c1ccccc1)C1NC(=O)CNC(=O)C(CO)NC(=O)C(C(O)C2CNC(=N)N2C2OC(CO)C(O)C(O)C2O)NC(=O)C(C(O)C2CNC(=N)N2)NC(=O)C(Cc2ccc(OC3OC(CO)C(OC4OC(CO)C(OCC=C(c5ccccc5)c5ccccc5)C(O)C4O)C(O)C3O)cc2)NC1=O (stereo not shown) [Example 241a]    2
CC(C)CC(=O)OC1C(O)C(CO)OC(OC2C(CO)OC(Oc3ccc(CC4NC(=O)C(C(C)c5cccs5)NC(=O)CNC(=O)C(CO)NC(=O)C(C(O)C5CNC(=N)N5C5OC(CO)C(O)C(O)C5O)NC(=O)C(C(O)C5CNC(=N)N5)NC4=O)cc3)C(O)C2O)C1O (stereo not shown) [Example 265b]    64

Enquiry: Which MIC Enterococcus faecium (GC 4556) value is on record for CCCCCNC(=O)OCC1OC(OC2C(CO)OC(Oc3ccc(CC4NC(=O)C(C(C)c5ccccc5)NC(=O)CNC(=O)C(CO)NC(=O)C(C(O)C5CNC(=N)N5C5OC(CO)C(O)C(O)C5O)NC(=O)C(C(O)C5CNC(=N)N5)NC4=O)cc3)C(O)C2O)C(O)C(O)C1O (stereo not shown) [Example 251b] ?
Return: 64

---

# Test system: Enterococcus sp.
# experiment: in vitro antibacterial evaluation, MIC by broth dilution
# Format: cell-based
# condition parameters: Enterococcus faecalis (GC 4554); broth dilution, 18 hours at 35° C.
Each item that follows carries a reported MIC Enterococcus faecalis (GC 4554).

Please review the entries below; each comes with its answer.
COc1cc(OC)cc(C2OC3C(OC4C(CO)OC(Oc5ccc(CC6NC(=O)C(C(C)c7ccccc7)NC(=O)CNC(=O)C(CO)NC(=O)C(C(O)C7CNC(=N)N7C7OC(CO)C(O)C(O)C7O)NC(=O)C(C(O)C7CNC(=N)N7)NC6=O)cc5)C(O)C4O)OC(CO)C(O)C3O2)c1 (stereo not drawn) [Example 150a]    >64 mg/L
CC(c1ccccc1)C1NC(=O)CNC(=O)C(CO)NC(=O)C(C(O)C2CN(Cc3ccc(-c4ccccc4)cc3)C(=N)N2C2OC(CO)C(O)C(O)C2O)NC(=O)C(C(O)C2CNC(=N)N2)NC(=O)C(Cc2ccc(OC3OC(CO)C(OC4OC(CO)C(O)C(O)C4O)C(O)C3O)cc2)NC1=O (stereo not drawn) [Example 66a]    >128 mg/L

Enquiry: Reported MIC Enterococcus faecalis (GC 4554) for CC(C)C(=O)OCC1OC(OC2C(CO)OC(Oc3ccc(CC4NC(=O)C(Cc5ccccc5)NC(=O)CNC(=O)C(CO)NC(=O)C(C(O)C5CNC(=N)N5C5OC(CO)C(O)C(O)C5O)NC(=O)C(C(O)C5CNC(=N)N5)NC4=O)cc3)C(O)C2O)C(O)C(O)C1O (stereo not drawn) [Example 283a] : what is it?
Return: >128 mg/L

---

# Test system: Enterococcus sp.
# experiment: in vitro antibacterial evaluation, MIC by broth dilution
# Type: cell-based
# condition parameters: strain GC 2691; broth dilution, 18 hours at 35° C.
assay endpoint: MIC Enterococcus faecalis (GC 2691) (µg/mL)
Provide the reading as a plain figure in µg/mL.

// solved cases for MIC Enterococcus faecalis (GC 2691) follow
CC(c1ccccc1)C1NC(=O)CNC(=O)C(CO)NC(=O)C(C(O)C2CNC(=N)N2C2OC(CO)C(O)C(O)C2O)NC(=O)C(C(O)C2CNC(=N)N2)NC(=O)C(Cc2ccc3oc(-c4cccc(F)c4)nc3c2)NC1=O (stereo not drawn)    32
CC(c1ccccc1)C1NC(=O)CNC(=O)C(CO)NC(=O)C(C(O)C2CNC(=N)N2C2OC(CO)C(O)C(O)C2O)NC(=O)C(C(O)C2CNC(=N)N2)NC(=O)C(Cc2ccc(OC3OC(CO)C(OC4OC5COC(c6ccc(-c7cccs7)cc6)OC5C(O)C4O)C(O)C3O)cc2)NC1=O (stereo not drawn)    4
CSc1ccc(C2OCC3OC(OC4C(CO)OC(Oc5ccc(CC6NC(=O)C(C(C)c7ccccc7)NC(=O)CNC(=O)C(CO)NC(=O)C(C(O)C7CNC(=N)N7C7OC(CO)C(O)C(O)C7O)NC(=O)C(C(O)C7CNC(=N)N7)NC6=O)cc5)C(O)C4O)C(O)C(O)C3O2)cc1[N+](=O)[O-] (stereo not drawn)    2
CC(c1ccccc1)C1NC(=O)CNC(=O)C(CO)NC(=O)C(C(O)C2CNC(=N)N2C2OC(CO)C(O)C(O)C2O)NC(=O)C(C(O)C2CNC(=N)N2)NC(=O)C(Cc2ccc(OC3OC(CO)C(OC4OC5COC(c6ccc(-c7ccsc7)cc6)OC5C(O)C4O)C(O)C3O)cc2)NC1=O (stereo not drawn)    8

Enquiry: Given the entry CC(=O)n1cc(C2OCC3OC(OC4C(CO)OC(Oc5ccc(CC6NC(=O)C(C(C)c7ccccc7)NC(=O)CNC(=O)C(CO)NC(=O)C(C(O)C7CNC(=N)N7C7OC(CO)C(O)C(O)C7O)NC(=O)C(C(O)C7CNC(=N)N7)NC6=O)cc5)C(O)C4O)C(O)C(O)C3O2)c2ccccc21 (stereo not drawn) , what MIC Enterococcus faecalis (GC 2691) was observed with Enterococcus sp.?
Return: 16

Enquiry: Ok, now CC(c1ccccc1)C1NC(=O)CNC(=O)C(CO)NC(=O)C(C(O)C2CNC(=N)N2C2OC(CO)C(O)C(O)C2O)NC(=O)C(C(O)C2CNC(=N)N2)NC(=O)C(Cc2ccc(OC3OC(CO)C(OC4OC5COC(c6cccc(-c7ccccc7)c6)OC5C(O)C4O)C(O)C3O)cc2)NC1=O (stereo not drawn)
Return: 2

Enquiry: Request: CCOc1cc(C2OCC3OC(OC4C(CO)OC(Oc5ccc(CC6NC(=O)C(C(C)c7ccccc7)NC(=O)CNC(=O)C(CO)NC(=O)C(C(O)C7CNC(=N)N7C7OC(CO)C(O)C(O)C7O)NC(=O)C(C(O)C7CNC(=N)N7)NC6=O)cc5)C(O)C4O)C(O)C(O)C3O2)ccc1OC (stereo not drawn)
Return: 32

Enquiry: Also CC(c1ccccc1)C1NC(=O)CNC(=O)C(CO)NC(=O)C(C(O)C2CNC(=N)N2C2OC(CO)C(O)C(O)C2O)NC(=O)C(C(O)C2CNC(=N)N2)NC(=O)C(Cc2ccc3oc(SCc4ccc5ccccc5c4)nc3c2)NC1=O (stereo not drawn) ?
Return: 16

Enquiry: What about this compound? CC(c1ccccc1)C1NC(=O)CNC(=O)C(CO)NC(=O)C(C(O)C2CNC(=N)N2C2OC(CO)C(O)C(O)C2O)NC(=O)C(C(O)C2CNC(=N)N2)NC(=O)C(Cc2ccc3oc(-c4ccc(Br)cc4)nc3c2)NC1=O (stereo not drawn)
Return: 32

Enquiry: Another compound: CC(c1ccccc1)C1NC(=O)CNC(=O)C(CO)NC(=O)C(C(O)C2CNC(=N)N2C2OC(CO)C(O)C(O)C2O)NC(=O)C(C(O)C2CNC(=N)N2)NC(=O)C(Cc2ccc3oc(-c4ccc(OCc5ccccc5)cc4)nc3c2)NC1=O (stereo not drawn)
Return: 64

Enquiry: Again, but for CC(c1ccccc1)C1NC(=O)CNC(=O)C(CO)NC(=O)C(C(O)C2CNC(=N)N2C2OC(CO)C(O)C(O)C2O)NC(=O)C(C(O)C2CNC(=N)N2)NC(=O)C(Cc2ccc(OC3OC(CO)C(OC4OC5COC(c6ccc(C(C)(C)C)cc6)OC5C(O)C4O)C(O)C3O)cc2)NC1=O (stereo not drawn)
Return: 0.5

Enquiry: Consider next the compound CC(C)=CCOc1cccc(C2OCC3OC(OC4C(CO)OC(Oc5ccc(CC6NC(=O)C(C(C)c7ccccc7)NC(=O)CNC(=O)C(CO)NC(=O)C(C(O)C7CNC(=N)N7C7OC(CO)C(O)C(O)C7O)NC(=O)C(C(O)C7CNC(=N)N7)NC6=O)cc5)C(O)C4O)C(O)C(O)C3O2)c1 (stereo not drawn) in the same way.
Return: 16

Entry source: patent US6914045B2
